system: BJ cell line; assay: cells; settings: Homo sapiens, 72 h
Listing of entries alongside the reported EC50.

# SMILES_REPRESENTATION, EC50
measured = [
    ("CC[C@@]1(O)C(=O)OCc2c1cc1n(c2=O)Cc2cc3c(CN(C)C)c(O)ccc3nc2-1", "> 2.57 µM"),
]

Next compound, EC50 to be filled in.
# EC50 of O=C(CCCCCCC(=O)Nc1ccccc1)NO = > 54.4 µM

* * *

system: Y79 cell line; experiment: Retinoblastoma cell proliferation inhibition assay (Cell Titer Glo, 72 hour incubation); type: cell-based, human; details: Homo sapiens
READOUT: EC50 (µM)
Give the quantity in µM, number only.

Bench note, Y79 cell line: entry CC[C@@]1(O)C(=O)OCc2c1cc1n(c2=O)Cc2cc3c(CN(C)C)c(O)ccc3nc2-1 , its EC50 = 0.069

* * *

test system: BJ cell line; settings: BJ cell line (normal fibroblast), 72 hour incubation
READOUT: EC50

Measured EC50, Cc1cc2c(C(=O)NC[C@H](C)c3ccccc3)c(O)c(O)cc2c(O)c1-c1c(C)cc2c(C(=O)NC[C@H](C)c3ccccc3)c(O)c(O)cc2c1O [Sabutoclax] : > 3.65 µM

Entry CC(C)c1ccccc1Cc1cc(C(=O)Nc2ccc(S(=O)(=O)c3ccccc3C(C)(C)C)cc2)c(O)c(O)c1O [TW-37] , EC50 reported as > 8.76 µM
